# Test system: BT-549
# TEST_SUMMARY: NCI tumour cell line growth inhibition, 48 h
Active and inactive are the calls of the source. No stated cut-off is given here; in the data, active = GI50 up to about 1.1 µM and inactive = higher. Where a SMILES comes first, the peptide text is derived from it. The star is where a group is joined. Boc = CC(C)(C)OC(=O)*
TEST_READOUT: GI50

Solved cases (5 shown):
COMPOUND	SYSTEM	GI50
COc1cc(Nc2c(C#N)[n+]([O-])c3ccccc3[n+]2[O-])cc(OC)c1OC	BT-549	97.5 µM (inactive)
COC(=O)C(Cc1c[nH]c2ccccc12)NC(=O)C(Cc1c[nH]c2ccccc12)NC(=O)C(Cc1c[nH]c2ccccc12)NC(=O)C(Cc1c[nH]c2ccccc12)NC(=O)C(Cc1c[nH]c2ccccc12)NC(=O)C(Cc1c[nH]c2ccccc12)NC(=O)C(Cc1c[nH]c2ccccc12)NC(=O)C(Cc1c[nH]c2ccccc12)NC(=O)OC(C)(C)C (stereo not given) (Boc-WWWWWWWW-OMe; configuration not given here)	BT-549	> 100 µM (inactive)
CCOP1(=O)CC(C)=C(Cl)C(O)C1 (stereo not given)	BT-549	> 100 µM (inactive)
COC(=O)c1cc2ccc(O)c(O)c2cn1	BT-549	> 10 µM (inactive)
Cc1cc(-c2[nH]c(C(=O)O)cc2I)on1	BT-549	66.1 µM (inactive)

Q) Name the recorded GI50 for "BrCCC[P+](c1ccccc1)(c1ccccc1)c1ccccc1" .
A) 8.39 µM (inactive)

Q) Name the recorded GI50 for "COCOc1cc(OC)ccc1C=O" .
A) 58.1 µM (inactive)

----------
# Tested on: SNB-75
# TEST_SUMMARY: NCI tumour cell line growth inhibition, 48 h
Activity calls are given as the source filed them. Rule as the data show it: active = GI50 up to about 1.1 µM and inactive = higher.
Outcome (select one): active, inactive

COMPOUND	ANSWER_LABEL
COc1ccc(S(=O)(=O)NC(CCC(=O)NC(N)=O)C(=O)NC(N)=O)cc1 (stereo unspecified)	inactive

Q) Recorded test call requested for NC1=CN2c3ccccc3N(CC(=O)N3CCOCC3)C2C=C1 (stereo unspecified)
A) inactive

Q) Recorded test call requested for CCOC(=O)C1S/C(=N\c2ccc(OC)c(OC)c2)N=C1C (stereo unspecified)
A) inactive

Q) Recorded test call requested for "NS(=O)(=O)c1ccc(NC(=O)c2cc([N+](=O)[O-])cc([N+](=O)[O-])c2)cc1"
A) inactive

Q) Recorded test call requested for "C=C(CN(C)C)C(=O)c1ccc(Oc2ccccc2)cc1"
A) inactive

Q) Recorded test call requested for "CN(C)c1ccc(/N=N/c2ccc3[nH]cnc3c2)cc1"
A) inactive

Q) Recorded test call requested for O=S(=O)(NC(c1ccccc1)(c1cc2ccccc2[nH]1)c1cc2ccccc2n1S(=O)(=O)c1ccccc1)c1ccccc1 (stereo unspecified)
A) inactive

Q) Recorded test call requested for "CC1=Nc2ccccc2OC(C)=C1/N=N/c1ccc2[nH]c(C)nc2c1"
A) inactive

Q) Recorded test call requested for CC(=O)O[C@H]1CC[C@@]2(C)C(CC[C@]3(C)C2CC[C@]2(C)Oc4c(C)cc(O)cc4C[C@@H]23)C1(C)C (stereo partly specified)
A) inactive

Q) Recorded test call requested for "O=C1C(Cl)=C(NCCO)C(=O)c2c(O)ccc(O)c21"
A) inactive

Q) Recorded test call requested for "Cc1cnc2sn(-c3ccc(Br)cc3)c(=O)c2c1"
A) inactive

----------
# Test system: M14
# TEST_SUMMARY: NCI tumour cell line growth inhibition, 48 h
Calls of active or inactive are those of the source. No stated cut-off is given here; in the data, active = GI50 up to about 1.1 µM and inactive = higher.
Outcome (select one): Yes = active, No = inactive

Q) Recorded test call requested for "O=C(Nc1cccc2nsnc12)c1cc2c(cc1Cl)Sc1nccn1S2(=O)=O"
A) No

Q) Recorded test call requested for COc1cc(C2C(Cl)C(=O)N2NC(=O)c2ccc(N)cc2)cc(Br)c1O (stereo not given)
A) No

Q) Recorded test call requested for COc1cc(C(c2cccc3ccccc23)N2C(=O)CCC2C(=O)NCc2ccccc2)cc(OC)c1OC (stereo not given)
A) No

Q) Recorded test call requested for "SCc1ccc(CS)s1"
A) No

Q) Recorded test call requested for "C[C@]12CC[C@@H]3c4ccc(O)cc4CC[C@H]3[C@@H]1C/C(=C\c1ccc(C#N)cc1)C2=O"
A) No

----------
# System: OVCAR-8
# TEST_SUMMARY: NCI tumour cell line growth inhibition, 48 h
Activity calls are given as the source filed them. Cut-off read from the data, not from the text of the source: active = GI50 up to about 1.1 µM and inactive = higher.
TEST_READOUT: GI50

Solved cases (2 shown):
COMPOUND	GI50
CC1=Nc2ccccc2OC(C)=C1/N=N/c1ccc2[nH]c(C)nc2c1	> 100 µM (inactive)
CSC12c3cc(C)n(-c4ccc([N+](=O)[O-])cc4)c3CC(C)(C)CN1C(=O)C2Oc1ccccc1 (stereo unspecified)	> 100 µM (inactive)

Q) Name the recorded GI50 for Cc1nn(C(=O)c2ccc(Cl)cc2)c2c1C(c1ccccc1)SC(=N)N2 (stereo unspecified) .
A) > 10 µM (inactive)

Q) Name the recorded GI50 for C1CC2CN(CCCN3CCOCC3)C(C1)O2 (stereo unspecified) .
A) > 100 µM (inactive)

Q) Name the recorded GI50 for "COc1ccccc1NS(=O)(=O)c1ccc2ncn(NS(=O)(=O)c3ccc(Cl)cc3)c(=O)c2c1" .
A) > 100 µM (inactive)

Q) Name the recorded GI50 for "O=C1C=C(Nc2ccc(Br)cc2)c2ccccc2C1=O" .
A) 12.5 µM (inactive)

----------
# Test system: OVCAR-4
# TEST_SUMMARY: NCI tumour cell line growth inhibition, 48 h
Active and inactive are the calls of the source. Cut-off read from the data, not from the text of the source: active = GI50 up to about 1.1 µM and inactive = higher.
Outcome (select one): active, inactive

# example entries with known answers
COMPOUND	ANSWER_LABEL
CCOC(=O)c1nc2ccccc2nc1Oc1cc(OC)cc(OC)c1	inactive
[O-]c1c2cc(-[n+]3c(-c4ccccc4)cc(-c4ccccc4)cc3-c3ccccc3)cc1CO[C@@H](c1ccccc1)[C@H](c1ccccc1)OCc1cccc(n1)CO[C@@H](c1ccccc1)[C@H](c1ccccc1)OC2	active
CC(C)[C@@H](COC(C)(C)C)/N=C/N1CCc2c([nH]c3ccccc23)C1	inactive
CC(=O)OCC1OC(n2cc(F)c(=O)[nH]c2=O)C(NC(=O)N(CCCl)N=O)C(OC(C)=O)C1OC(C)=O (stereo not drawn)	inactive
CC1(C)OCC(C2OC(On3nnc4ccc(Cl)cc43)C3OC(C)(C)OC23)O1 (stereo not drawn)	inactive

Q) Recorded test call requested for "COc1cc(/C=C(\C#N)C(=O)c2ccccc2)ccc1OCc1ccccc1"
A) inactive

Q) Recorded test call requested for COc1ccc2c(c1OC)CN1CCc3cc4c(cc3C1C2)OCO4 (stereo not drawn) [TETRAHYDROBERBERINE]
A) inactive

Q) Recorded test call requested for "CCOC(=O)c1c(NC(=O)c2cccs2)sc2c1CCCC2"
A) inactive

----------
# Test system: EKVX
# TEST_SUMMARY: NCI tumour cell line growth inhibition, 48 h
Active and inactive are the calls of the source. Rule as the data show it: active = GI50 up to about 1.1 µM and inactive = higher.
Reported GI50 values follow for various molecules

MOLECULE	GI50
CN(CCCCN1CCCC1)CCCN(C)C(=O)Cc1ccc(Cl)c(Cl)c1	19.5 µM (inactive)
CCCn1c(SCC)c2cc3cc4ccccc4cc3cc2c1-c1nc(F)nc(F)n1	> 100 µM (inactive)
c1ccc2c(c1)OCCc1cn[nH]c1-2	80.5 µM (inactive)
Cn1c(=O)[nH]c2nncnc2c1=O	40.5 µM (inactive)
C=C(CN(C)C)C(=O)c1ccccc1	21.8 µM (inactive)
COc1cccc(-c2nnc3c(-c4ccccc4)nc4ccccc4n23)c1	55.2 µM (inactive)

Q) Name the recorded GI50 for COc1ccc(C2SCc3nc4ccccc4n32)cc1 (configuration not stated) .
A) 19.5 µM (inactive)

Q) Name the recorded GI50 for "COc1cc(OC)cc(-c2cc(O)c3cc4c(cc3n2)OCO4)c1" .
A) 12.6 µM (inactive)

----------
# Test system: EKVX
# TEST_SUMMARY: NCI tumour cell line growth inhibition, 48 h
Calls of active or inactive are those of the source. No stated cut-off is given here; in the data, active = GI50 up to about 1.1 µM and inactive = higher.
Outcome (select one): active, inactive

# example entries with known answers
MOLECULE	ANSWER_LABEL
CC(SCc1ccccc1)C(=O)O (stereo not given)	inactive
COC1/C=C\C=C(/C)C(=O)NC2=CC(=O)C(NCCCl)=C(CC(C)CC(OC)C(O)C(C)/C=C(/C)C1OC(N)=O)C2=O (stereo not given)	active

Q) Recorded test call requested for "CCSc1nnc2c(-c3ccccc3)n[nH]c2n1"
A) inactive

Q) Recorded test call requested for COc1ccccc1-c1csc(CCC(N)C(=O)O)n1 (stereo not given)
A) inactive

Q) Recorded test call requested for "C[C@]12CC[C@@H]3c4ccc(O)cc4CC[C@H]3[C@@H]1C/C(=C\c1ccc(C#N)cc1)C2=O"
A) inactive

Q) Recorded test call requested for Cc1nn(C(=O)c2ccc(Cl)cc2)c2c1C(c1ccccc1)SC(=N)N2 (stereo not given)
A) inactive

Q) Recorded test call requested for "COc1ccccc1NS(=O)(=O)c1ccc2ncn(NS(=O)(=O)c3ccc(Cl)cc3)c(=O)c2c1"
A) inactive

Q) Recorded test call requested for "CCc1c(CNC2=NCCN2)c(CC)c(CNC2=NCCN2)c(CC)c1CNC1=NCCN1"
A) inactive

Q) Recorded test call requested for C=CC1(CBr)CCC(C(C)(C)Br)O1 (stereo not given)
A) inactive

Q) Recorded test call requested for "CCN1CSC(=S)N(CC)C1"
A) inactive

Taken from ChEMBL document CHEMBL1201862.
